FYI, the data here is from patent US20130303532A1.

# SYSTEM NAME: human kinase Mps-1 (Homo sapiens, UniProt P33981)
# Construct: N-terminally GST-tagged human full length recombinant Mps-1 kinase; GST (N); purchased Invitrogen, Karslruhe, Germany PV4071
# ASSAY NOTES: Mps-1 kinase assay (TR-FRET)
# Type: biochemical
# MEASUREMENT CONTEXT: Mps1 IC50 [nM], N-terminally GST-tagged human full length recombinant Mps-1; 10 μM ATP; 1 μM biotinylated peptide substrate; 60 min at 22° C.
Would you kindly list IC50 for each of these compounds?
Write down the numeric answer in nM and omit the unit.

Which IC50 reading was recorded for the compound "O=C(NC1CC1)c1ccc(-c2cnc3c(NCCc4ccccc4)nccn23)cc1" ?
47.7

Tell me the measured IC50 of "Cc1cc(-c2cnc3c(NC[C@@H](O)CO)nccn23)ccc1C(=O)NC1CC1" , please.
361

I would be grateful if you could share the reported IC50 for CCOC(C)CNc1nccn2c(-c3ccc(C(=O)NC4CC4)c(Cl)c3)cnc12 (centres unmarked) .
409

Endpoint output: IC50 of "O=C(NC1CC1)c1ccc(-c2cnc3c(NCCCO)nccn23)cc1Cl" . Value?
430

Given the entry "CC(C)CNc1nccn2c(-c3ccc(C(=O)NC4CC4)c(F)c3)cnc12" , report its measured IC50.
34

Which IC50 value belongs to "Cc1cc(-c2cnc3c(NCC(C)C)nccn23)cc(C)c1C(=O)NC1CC1" ?
1230

Which value of IC50 has been reported for "Cc1cc(-c2cnc3c(NCc4ccc(Cl)s4)nccn23)ccc1C(=O)NC1CC1" in the records?
22.5

Looking for the measured IC50 of "COc1cc(C(=O)NC2CC2)ccc1-c1cnc2c(NCC(C)C)nccn12" , can you help?
19.3

Query (compound): CCOC(C)CNc1nccn2c(-c3ccc(C(=O)NC4CC4)c(C)c3)cnc12 (centres unmarked) ; field requested: IC50
154

Consider the compound shown here: "O=C(NC1CC1)c1ccc(-c2cnc3c(NCCCCO)nccn23)cc1Cl" What is its recorded IC50?
239

Please give the measured IC50 for this compound: "O=C(NC1CC1)c1ccc(-c2cnc3c(NCc4ccc(Cl)s4)nccn23)cc1O"
91.3

For the compound "Cc1cc(-c2cnc3c(NCc4ccn(C)n4)nccn23)ccc1C(=O)NC1CC1" , what IC50 is on record?
298

What value of IC50 has been reported for the following compound? "O=C(NC1CC1)c1ccc(-c2cnc3c(NCCCN4CCOCC4)nccn23)cc1"
328

Any idea what IC50 was measured for "O=C(NC1CC1)c1ccc(-c2cnc3c(NCc4cccc(F)c4)nccn23)cc1Cl" ?
200

For the compound shown here, "Cc1ccc(CNc2nccn3c(-c4ccc(C(=O)NC5CC5)cc4)cnc23)cc1" , give the reported IC50.
21

# lookup: IC50 of "Cc1cc(-c2cnc3c(NCCCN4CCOCC4)nccn23)ccc1C(=O)NC1CC1"
389

Given "Cc1cc(-c2cnc3c(NCc4ccn[nH]4)nccn23)ccc1C(=O)NC1CC1" , state its recorded IC50.
86.7

* * *

# SYSTEM NAME: human kinase Mps-1 (Homo sapiens, UniProt P33981)
# Construct: N-terminally GST-tagged human full length recombinant Mps-1 kinase; GST (N); purchased Invitrogen, Karslruhe, Germany PV4071
# ASSAY NOTES: Mps-1 kinase assay (TR-FRET)
# Assay type: biochemical
# MEASUREMENT CONTEXT: Mps1 IC50 [nM], N-terminally GST-tagged human full length recombinant Mps-1; 10 μM ATP; 1 μM biotinylated peptide substrate; 60 min at 22° C.
Returns: string. Value is Met if measured IC50 is below 100 nM, and Not met if it is greater than or equal to it.

Threshold test, IC50 < 100 nM: O=C(NC1CC1)c1ccc(-c2cnc3c(NCC(F)F)nccn23)cc1Cl [Example 7-59]
Not met

Report whether reported IC50 is lower than 100 nM (strictly) for CC(C)CNc1nccn2c(-c3ccc(C(=O)NC4CC4)cc3F)cnc12 [Example 1-3]
Met

Threshold test, IC50 < 100 nM: Cc1cc(-c2cnc3c(NCc4ccc(F)cc4)nccn23)ccc1C(=O)NC1CC1 [Example 7-98]
Met

Quick check: IC50 of COCCCNc1nccn2c(-c3ccc(C(=O)NC4CC4)c(Cl)c3)cnc12 [Example 7-58] under 100 nM?
Not met

Confirm or reject: IC50 of Cc1cc(-c2cnc3c(NCc4cccs4)nccn23)ccc1C(=O)NC1CC1 [Example 7-102] lies strictly below 100 nM
Met

hey, is IC50 for O=C(NC1CC1)c1ccc(-c2cnc3c(NCc4ccc(F)cc4)nccn23)cc1 [Example 7-31] lower than 100 nM or not?
Met

Please state whether IC50 is below 100 nM for COCCNc1nccn2c(-c3ccc(C(=O)NC4CC4)c(C)c3)cnc12 [Example 7-96]
Not met

* * *

Field: IC50. Provide a value for each of the compounds that follow.
# SYSTEM NAME: human kinase Mps-1 (Homo sapiens)
# Construct: N-terminally GST-tagged human full length recombinant Mps-1 kinase; GST (N); purchased Invitrogen, Karslruhe, Germany PV4071
# Sequence (P33981 1-857): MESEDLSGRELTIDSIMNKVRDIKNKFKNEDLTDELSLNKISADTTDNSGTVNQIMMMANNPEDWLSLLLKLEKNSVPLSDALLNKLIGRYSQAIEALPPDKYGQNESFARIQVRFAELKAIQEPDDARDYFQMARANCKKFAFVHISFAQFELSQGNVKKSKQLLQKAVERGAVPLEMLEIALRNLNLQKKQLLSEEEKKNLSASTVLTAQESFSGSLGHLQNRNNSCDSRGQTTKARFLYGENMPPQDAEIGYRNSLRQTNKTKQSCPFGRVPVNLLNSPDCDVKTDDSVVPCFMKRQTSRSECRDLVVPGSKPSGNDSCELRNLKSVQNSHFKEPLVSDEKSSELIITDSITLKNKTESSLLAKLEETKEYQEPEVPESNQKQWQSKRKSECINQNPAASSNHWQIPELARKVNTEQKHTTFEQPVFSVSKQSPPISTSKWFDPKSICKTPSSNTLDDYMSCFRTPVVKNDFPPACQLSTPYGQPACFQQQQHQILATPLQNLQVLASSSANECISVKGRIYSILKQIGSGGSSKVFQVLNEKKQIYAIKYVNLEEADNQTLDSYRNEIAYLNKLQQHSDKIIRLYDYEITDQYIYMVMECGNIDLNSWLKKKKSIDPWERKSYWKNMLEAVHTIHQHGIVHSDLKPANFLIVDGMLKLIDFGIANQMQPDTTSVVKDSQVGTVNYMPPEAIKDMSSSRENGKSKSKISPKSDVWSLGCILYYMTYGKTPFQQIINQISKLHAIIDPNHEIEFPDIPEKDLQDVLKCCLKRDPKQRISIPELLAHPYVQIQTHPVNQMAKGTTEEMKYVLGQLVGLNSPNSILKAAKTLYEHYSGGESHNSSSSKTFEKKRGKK
# ASSAY NOTES: Mps-1 kinase assay (TR-FRET)
# Type: biochemical
# MEASUREMENT CONTEXT: Mps1 IC50 [nM], N-terminally GST-tagged human full length recombinant Mps-1; 10 μM ATP; 1 μM biotinylated peptide substrate; 60 min at 22° C.
Numeric only. Scale: nM

IC50 of O=C(NC1CC1)c1ccc(-c2cnc3c(NCC(O)C(F)(F)F)nccn23)cc1O (stereo not shown) on human kinase Mps-1 (Homo sapiens)?
56.7

Report IC50 for "Cn1cc(CNc2nccn3c(-c4ccc(C(=O)NC5CC5)c(O)c4)cnc23)cn1" tested on human kinase Mps-1 (Homo sapiens).
105

Recall the recorded IC50 for "O=C(NC1CC1)c1ccc(-c2cnc3c(NCc4ccco4)nccn23)cc1Cl" with human kinase Mps-1 (Homo sapiens) and state it.
209

Observed IC50 on human kinase Mps-1 (Homo sapiens) for "CC(=O)NCCNc1nccn2c(-c3ccc(C(=O)NC4CC4)c(C)c3)cnc12" , please.
1470

* * *

# SYSTEM NAME: human kinase Mps-1 (Homo sapiens, UniProt P33981)
# Construct: N-terminally GST-tagged human full length recombinant Mps-1 kinase; GST (N); purchased Invitrogen, Karslruhe, Germany PV4071
# ASSAY NOTES: Mps-1 kinase assay (TR-FRET)
# Assay type: biochemical
# MEASUREMENT CONTEXT: Mps1 IC50 [nM], N-terminally GST-tagged human full length recombinant Mps-1; 10 μM ATP; 1 μM biotinylated peptide substrate; 60 min at 22° C.
Kindly state IC50 for each of the entries shown.

Give its IC50 value. Item: "Cn1cc(CNc2nccn3c(-c4ccc(C(=O)NC5CC5)c(Cl)c4)cnc23)cn1"
308 nM

What value of measured IC50 is listed for "Cc1cc(-c2cnc3c(NCC(F)F)nccn23)ccc1C(=O)NC1CC1" ?
70.3 nM

Requested field: IC50. Item: "Cc1cc(-c2cnc3c(NCCO)nccn23)ccc1C(=O)NC1CC1"
363 nM

Returns the measured IC50 for the input molecule. Input: "Cc1ccccc1CNc1nccn2c(-c3ccc(C(=O)NC4CC4)cc3)cnc12"
88.8 nM

Value lookup for IC50; key = "COc1ccccc1CNc1nccn2c(-c3ccc(C(=O)NC4CC4)cc3)cnc12"
85.5 nM

// IC50 lookup, key: "NC(=O)CCNc1nccn2c(-c3ccc(C(=O)NC4CC4)c(Cl)c3)cnc12"
4870 nM

Returns the measured IC50 for the input molecule. Input: "O=C(NC1CC1)c1ccc(-c2cnc3c(NCc4ccco4)nccn23)cc1O"
77.3 nM

Item "O=C(NC1CC1)c1ccc(-c2cnc3c(NC[C@@H](O)CO)nccn23)cc1Cl" has what recorded IC50?
1720 nM
